- protocol: Inhibition of Salmonella typhimurium N-terminal His6-tagged FabG expressed in Escherichia coli BL21 (DE3) using 3-OHdNAC as substrate assessed as NADPH formation incubated for 2 hrs in presence of NADP by spectrophotometric analysis
- Set-up: species or system Salmonella enterica subsp. enterica serovar Typhimurium
pIC50: −log10 of the molar value.
property_label: pIC50

input_smiles=O=c1[nH]c(SCc2c(Cl)cccc2Cl)nc2ccnn12 obs_value=4.66
input_smiles=CCOC(=O)c1c(CN(C)C)n(-c2ccccc2)c2cc(Br)c(O)cc12 obs_value=4.46
input_smiles=O=C(Nc1ccc(Br)cc1C(=O)O)c1cccs1 obs_value=5.29

====

- protocol: Inhibition of Klebsiella pneumoniae N-terminal His6-tagged FabG1 expressed in Escherichia coli BL21 (DE3) using AcAcCoA as substrate assessed as NADPH consumption measured for 6 to 10 mins in presence of NADPH by spectrophotometric analysis
pIC50: −log10 of the molar value.
# pIC50 per entry
property_label: pIC50

input_smiles=CCOC(=O)c1c(CN(C)C)n(-c2ccccc2)c2cc(Br)c(O)cc12 obs_value=4.86
input_smiles=O=C(Nc1ccc(Br)cc1C(=O)O)c1cccs1 obs_value=3.73
input_smiles=O=c1[nH]c(SCc2c(Cl)cccc2Cl)nc2ccnn12 obs_value=3.86

====

- protocol: Inhibition of Escherichia coli N-terminal His6-tagged FabG expressed in Escherichia coli BL21 (DE3) using AcAcCoA as substrate assessed as NADPH consumption measured for 6 to 10 mins in presence of NADPH by spectrophotometric analysis
pIC50: −log10 of the molar value.
This listing pairs compounds with measured pIC50.
property_label: pIC50

input_smiles=CCOC(=O)c1c(CN(C)C)n(-c2ccccc2)c2cc(Br)c(O)cc12 obs_value=5.15
input_smiles=O=c1[nH]c(SCc2c(Cl)cccc2Cl)nc2ccnn12 obs_value=4.70

====

- protocol: Inhibition of Pseudomonas aeruginosa N-terminal His6-tagged FabG expressed in Escherichia coli BL21 (DE3) using AcAcCoA as substrate assessed as NADPH consumption measured for 6 to 10 mins in presence of NADPH by spectrophotometric analysis
pIC50: −log10 of the molar value.
property_label: pIC50

input_smiles=O=c1[nH]c(SCc2c(Cl)cccc2Cl)nc2ccnn12 property_label=pIC50 obs_value=4.51
input_smiles=CCOC(=O)c1c(CN(C)C)n(-c2ccccc2)c2cc(Br)c(O)cc12 property_label=pIC50 obs_value=4.71
input_smiles=O=C(Nc1ccc(Br)cc1C(=O)O)c1cccs1 property_label=pIC50 obs_value=5.51
